measurementNotes: in vitro
conditionNotes: mouse, microsomes, pH 7.4
metric: half-life at 1 μM (h)
Unit h implied. Number only.

Query (molecule): CC(C)c1cc(Oc2c(Cl)cc(-n3nc(CF)c(=O)[nH]c3=O)cc2Cl)n[nH]c1=O ; field requested: half-life at 1 μM
3.12

---

testedOn: THRα (Homo sapiens, UniProt P10827)
Sequence (P10827 163-410 isoform P10827-2 limits assumed, other chains not shown): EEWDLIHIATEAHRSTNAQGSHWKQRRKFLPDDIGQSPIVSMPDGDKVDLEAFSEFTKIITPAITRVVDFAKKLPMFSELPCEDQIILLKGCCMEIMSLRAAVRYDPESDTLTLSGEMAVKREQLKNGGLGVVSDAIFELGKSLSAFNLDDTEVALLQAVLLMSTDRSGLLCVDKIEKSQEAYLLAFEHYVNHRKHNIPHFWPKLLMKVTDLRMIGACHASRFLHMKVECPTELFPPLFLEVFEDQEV
Sequence (P19793 whole entry partner, other chains not shown): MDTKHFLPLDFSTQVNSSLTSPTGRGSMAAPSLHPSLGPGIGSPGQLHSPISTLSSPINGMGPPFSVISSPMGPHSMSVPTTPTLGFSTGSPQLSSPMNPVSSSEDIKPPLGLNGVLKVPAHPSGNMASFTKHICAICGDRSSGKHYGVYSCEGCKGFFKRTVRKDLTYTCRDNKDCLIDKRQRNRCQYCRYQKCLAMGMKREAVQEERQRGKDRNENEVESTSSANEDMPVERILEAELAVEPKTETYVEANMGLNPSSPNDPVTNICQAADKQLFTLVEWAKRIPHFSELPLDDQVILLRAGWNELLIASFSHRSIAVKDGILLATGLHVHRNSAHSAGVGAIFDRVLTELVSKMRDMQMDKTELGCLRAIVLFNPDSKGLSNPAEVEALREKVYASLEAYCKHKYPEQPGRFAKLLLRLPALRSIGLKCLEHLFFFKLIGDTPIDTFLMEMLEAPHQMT
measurementNotes: THRα binding assay (TR-FRET co-activating peptide recruitment)
conditionNotes: THRα instead of THRβ, agonistic effect
metric: EC50 (nM)
Unit nM implied. Number only.

| smilesNotation | EC50 / nM |
| --- | --- |
| O=c1[nH]nc(Oc2c(Cl)cc(-n3nc(CF)c(=O)[nH]c3=O)cc2Cl)cc1C1CCC1 | 230 |
| O=c1[nH]nc(Oc2c(Cl)cc(-n3nc(CF)c(=O)[nH]c3=O)cc2Cl)cc1C1CCCC1 | 1410 |

Query (molecule): O=c1[nH]nc(Oc2c(Cl)cc(-n3nc(CF)c(=O)[nH]c3=O)cc2Cl)cc1C1CCCCC1 ; field requested: EC50
4260

Query (molecule): CC(C)c1cc(Oc2c(Cl)cc(-n3nc(CF)c(=O)[nH]c3=O)cc2Cl)n[nH]c1=O ; field requested: EC50
190

Query (molecule): O=c1[nH]nc(Oc2c(Cl)cc(-n3nc(CF)c(=O)[nH]c3=O)cc2Cl)cc1C1CC1 ; field requested: EC50
210
